# Tested target: Prostaglandin G/H synthase 1 (Homo sapiens, UniProt P23219); also: assay procedure not described here
# Sequence (P23219 whole entry): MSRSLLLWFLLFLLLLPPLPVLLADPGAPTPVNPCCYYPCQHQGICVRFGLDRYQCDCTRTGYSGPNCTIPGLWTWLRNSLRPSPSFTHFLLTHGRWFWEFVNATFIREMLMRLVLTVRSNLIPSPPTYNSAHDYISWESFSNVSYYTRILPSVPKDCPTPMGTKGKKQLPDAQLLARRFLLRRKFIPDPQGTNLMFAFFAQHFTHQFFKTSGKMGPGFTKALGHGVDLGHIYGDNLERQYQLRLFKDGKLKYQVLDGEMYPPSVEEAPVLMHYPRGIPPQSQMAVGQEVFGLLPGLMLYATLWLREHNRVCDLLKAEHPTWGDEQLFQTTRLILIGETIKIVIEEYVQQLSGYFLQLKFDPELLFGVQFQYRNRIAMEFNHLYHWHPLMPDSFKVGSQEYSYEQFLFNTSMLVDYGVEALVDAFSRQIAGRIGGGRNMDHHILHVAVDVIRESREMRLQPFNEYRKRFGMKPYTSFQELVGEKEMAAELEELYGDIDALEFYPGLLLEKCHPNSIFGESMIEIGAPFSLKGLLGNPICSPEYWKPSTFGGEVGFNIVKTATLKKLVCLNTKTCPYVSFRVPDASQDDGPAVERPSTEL
# Format: functional
*1 amine or outer side, *2 acyl side, *3 side chain or, on linkers, in order; H or OH if unused. Where a SMILES comes first, the peptide text is derived from it. Bridges are numbered along the chain shown (N, C = ends). [ ]: non-standard residue; d: D form. The star is where a group is joined. hTyr(3S-OH,4S-OH,3'-OSO3H) = N[C@H](C(=O)O)[C@H](O)[C@@H](O)c1ccc(O)c(OS(=O)(=O)O)c1; Orn(4R-OH,5R-OH) = O=C([C@H](C[C@@H](O)[C@@H](O)N[*:3])N[*:1])[*:2]; Pro(3S-OH,4S-Me) = C[C@H]1CN[C@H](C(=O)O)[C@H]1O; X1 = CCCCCOc1ccc(-c2cc(-c3ccc(C(=O)*)cc3)no2)cc1; Gln(3R-OH) = NC(=O)C[C@@H](O)[C@H](N)C(=O)O; Hyp = O=C(O)[C@@H]1C[C@@H](O)CN1
Attribute: AC50
Measurement name: AC50

>>> observed("COCCOc1cnc(NS(=O)(=O)c2ccccc2)nc1")
"> 30 µM"
>>> observed("N=C(N)NCc1cccc([123I])c1")
"> 30 µM"
>>> observed("COCCCOc1ccnc(C[S+]([O-])c2nc3ccccc3[nH]2)c1C (stereo unspecified)")
"25.4 µM"
>>> observed("Cc1onc(-c2c(Cl)cccc2Cl)c1C(=O)N[C@@H]1C(=O)N2[C@@H]1SC(C)(C)[C@@H]2C(=O)O")
"> 30 µM"
>>> observed("N[C@@H](CSSC[C@H](N)C(=O)O)C(=O)O")
"> 30 µM"
>>> observed("CCCCCOc1ccc(-c2cc(-c3ccc(C(=O)N[C@H]4C[C@@H](O)[C@@H](O)NC(=O)[C@@H]5[C@@H](O)[C@@H](C)CN5C(=O)[C@H]([C@H](O)CC(N)=O)NC(=O)[C@H]([C@H](O)[C@@H](O)c5ccc(O)c(OS(=O)(=O)O)c5)NC(=O)[C@@H]5C[C@@H](O)CN5C(=O)[C@H]([C@@H](C)O)NC4=O)cc3)no2)cc1 [MICAFUNGIN] (X1-[Orn(4R-OH,5R-OH)]T[Hyp][hTyr(3S-OH,4S-OH,3'-OSO3H)][Gln(3R-OH)][Pro(3S-OH,4S-Me)]; lactam 1-C)")
"> 30 µM"
